Value source: the supplement of paper PMC12067926

system: Microbacterium 1 (Microbacterium arborescens); assay: relative growth (AUC of 72 h growth curve relative to DMSO control, dAUC) (ratio); higher = more growth (less inhibition), active = hit call of the paper; details: 20 µM
Label True for high-side relative growth (at or above 1) and False for low-side relative growth (below it).

Input: Exam item: decide whether the reported relative growth for `Oc1ccc(Cl)cc1Cc1cc(Cl)ccc1O` is at least 1.
Output: False

----------
Property: relative growth; scope: individual molecules
system: Community 4; experiment: relative growth (AUC of 72 h growth curve relative to DMSO control, dAUC) (ratio); higher = more growth (less inhibition), active = hit call of the paper; settings: 20 µM
# respond with the number and nothing more

Solved entries:
COMPOUND_STRUCTURE	STUDY_TARGET	relative growth
N#Cc1c[nH]cc1-c1cccc2c1OC(F)(F)O2	Community 4	0.977
CCC(C)(C)C(=O)OC1=C(c2ccc(Cl)cc2Cl)C(=O)OC12CCCCC2	Community 4	1.03
O=C(O)CNCP(=O)(O)O	Community 4	1.03
O=C(O)COc1ccc(Cl)cc1Cl	Community 4	1.04
Fc1ccc(Oc2ccnc3cc(Cl)cc(Cl)c23)cc1	Community 4	0.987
CC(C)OC(=O)C(C(=O)OC(C)C)=C1SCCS1	Community 4	0.901

Continue with the molecule presented below.
Input: // lookup relative growth for `COP(=O)(OC)OC=C(Cl)Cl`
Output: 0.961
